target: BDBV GP [change] (Bundibugyo ebolavirus (BDBV), strain 200706291 Uganda); assay: ELISA, coated recombinant GP ΔTM
Property: EC50; scope: individual binders
Answer in µg/mL, number only, no unit symbol.

Request: Please report the measured EC50 for EBOV-508 (antibody, V domains shown) VH: QVQLVQSGAEVKKPGASVKVSCKASGYTFINYYMHWVRQAPGQGLEWMGTINPSTGRPNYAQKFQGRVTLTRDTSTTTVDMELSSLTSEDTAVYYCVSFQFYFDYWGQGTLVTVSS VL: DIQMTQSPSAMSPSVGDRVTITCRASQGINNYLAWFQQKPGKVPKRLIYAASNLQSGVPSRFSGSGSGTEFTLTISSLQPEDFATYYCLQHNSYPWTFGQGTKVEIN
Result: 0.005

Request: Please report the measured EC50 for EBOV-518 (antibody, V domains shown) VH: QVTLKESGPTLVKPTQTLTLTCTFSGFSMNSSGMSVTWIRQPPGKALECLALIYWDDDKWYGPSLETRVTITKDASKNQVVLTMTNMDPVDTATYYCAHSGGLVAGAFDYWGQGTLVTVSS VL: EIVMTQSPDSLTVSLGERATINCRSSQSVLYRVNSKNYLAWYQQKAGQTPKLIINWASTRESGVPDRFSGSGSGTDFTLTISSLQAEDVAVYYCQQYYNSPRTFGQGTKVEIK
Result: 2.63

Then there is this binder:
Request: Please report the measured EC50 for EBOV-517 (antibody, V domains shown) VH: EVQLVESGGGLVQPGGSLRLSCGASGFTFNKYWMTWVRQAPGKGLEWVANINQDGSEKYFAESVKGRFTVSRDNAKNSLYLQMNSLRAEDTAVYYCARGASIEVEILYYYHMDVWGKGTLVTVSS VL: EIVMTQSPATLSVSPGERATLSCRASQSITTHLAWYQQKPGQAPRLLIYDTSTRATGIPARFSGSGSGTEFTLTISNMQSEDFAVYYCQQYHTWPPLTFGGGTKVEIK
Result: 0.865
